Numbers sourced from patent US9701658B2.

Molecular target: human Nav1.3 (Homo sapiens, UniProt Q9NY46)
Sequence (Q9NY46 whole entry): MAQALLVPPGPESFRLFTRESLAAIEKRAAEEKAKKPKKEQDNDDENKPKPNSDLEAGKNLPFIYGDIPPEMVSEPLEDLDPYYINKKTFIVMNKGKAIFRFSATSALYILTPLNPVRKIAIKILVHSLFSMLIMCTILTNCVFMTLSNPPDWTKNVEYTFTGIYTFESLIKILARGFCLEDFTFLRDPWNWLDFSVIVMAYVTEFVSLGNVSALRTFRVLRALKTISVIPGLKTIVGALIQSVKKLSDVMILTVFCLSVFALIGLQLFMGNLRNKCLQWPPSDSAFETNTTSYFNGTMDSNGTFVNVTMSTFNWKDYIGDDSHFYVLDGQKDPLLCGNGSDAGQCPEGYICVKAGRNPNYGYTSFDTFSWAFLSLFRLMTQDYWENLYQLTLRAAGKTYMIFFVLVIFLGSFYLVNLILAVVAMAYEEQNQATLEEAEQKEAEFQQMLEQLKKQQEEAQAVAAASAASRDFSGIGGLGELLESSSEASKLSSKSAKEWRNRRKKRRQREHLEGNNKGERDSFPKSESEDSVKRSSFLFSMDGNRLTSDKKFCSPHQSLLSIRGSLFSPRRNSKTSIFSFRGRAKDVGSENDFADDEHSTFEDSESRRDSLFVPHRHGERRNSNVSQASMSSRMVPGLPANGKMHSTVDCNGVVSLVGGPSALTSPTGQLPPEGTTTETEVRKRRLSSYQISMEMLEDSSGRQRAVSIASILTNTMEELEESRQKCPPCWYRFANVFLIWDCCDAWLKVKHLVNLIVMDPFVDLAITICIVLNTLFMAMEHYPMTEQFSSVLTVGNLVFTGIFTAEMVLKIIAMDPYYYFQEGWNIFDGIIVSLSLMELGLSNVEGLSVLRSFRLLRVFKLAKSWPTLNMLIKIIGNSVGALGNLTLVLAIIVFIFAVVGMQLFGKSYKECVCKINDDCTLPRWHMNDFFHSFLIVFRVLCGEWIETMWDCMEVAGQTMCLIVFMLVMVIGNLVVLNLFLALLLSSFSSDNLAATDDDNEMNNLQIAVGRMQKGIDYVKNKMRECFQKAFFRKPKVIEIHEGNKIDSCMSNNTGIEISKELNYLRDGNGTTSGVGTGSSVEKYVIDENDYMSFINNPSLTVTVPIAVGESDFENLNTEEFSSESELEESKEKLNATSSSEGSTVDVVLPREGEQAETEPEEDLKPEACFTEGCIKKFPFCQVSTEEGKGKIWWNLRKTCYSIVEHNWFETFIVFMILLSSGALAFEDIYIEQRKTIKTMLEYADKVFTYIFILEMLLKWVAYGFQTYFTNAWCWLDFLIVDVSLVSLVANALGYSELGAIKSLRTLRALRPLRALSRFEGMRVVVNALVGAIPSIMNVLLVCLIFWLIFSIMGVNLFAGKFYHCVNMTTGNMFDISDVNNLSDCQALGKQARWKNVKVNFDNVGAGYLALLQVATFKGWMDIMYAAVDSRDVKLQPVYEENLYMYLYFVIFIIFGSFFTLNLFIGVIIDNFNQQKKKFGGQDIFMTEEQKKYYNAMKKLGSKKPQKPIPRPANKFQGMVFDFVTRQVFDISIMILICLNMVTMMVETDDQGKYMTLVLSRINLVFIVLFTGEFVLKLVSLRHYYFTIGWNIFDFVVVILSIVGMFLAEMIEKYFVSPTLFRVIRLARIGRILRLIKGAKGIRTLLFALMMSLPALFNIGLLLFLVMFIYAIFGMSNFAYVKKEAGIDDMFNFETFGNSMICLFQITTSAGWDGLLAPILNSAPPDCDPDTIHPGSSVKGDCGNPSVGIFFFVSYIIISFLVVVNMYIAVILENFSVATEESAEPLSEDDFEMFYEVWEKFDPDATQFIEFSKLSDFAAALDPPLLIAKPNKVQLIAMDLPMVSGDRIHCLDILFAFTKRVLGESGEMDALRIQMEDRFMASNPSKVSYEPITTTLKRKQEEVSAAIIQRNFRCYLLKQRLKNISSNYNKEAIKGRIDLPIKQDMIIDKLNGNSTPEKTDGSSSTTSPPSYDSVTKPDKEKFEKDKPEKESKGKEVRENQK
Assay: FRET assay, human Nav1.3 channels (HEK293, EFS on FDSS)
Details: read-out: activity (IC50) against Nav1.3
Measured Parameter: IC50 (nM)
Expressed in nM, but write only the number.

Problem: Missing value: IC50, human Nav1.3 (Homo sapiens, UniProt Q9NY46), entry CCC(=O)Nc1cc(CNC(=O)c2ccc(OCC(F)(F)F)nc2)cc(C)n1 [Example 12] . Fill in?
Result: 510

###

Target: human Nav1.7 (hSCN9A) (Homo sapiens)
Sequence (Q15858 whole entry): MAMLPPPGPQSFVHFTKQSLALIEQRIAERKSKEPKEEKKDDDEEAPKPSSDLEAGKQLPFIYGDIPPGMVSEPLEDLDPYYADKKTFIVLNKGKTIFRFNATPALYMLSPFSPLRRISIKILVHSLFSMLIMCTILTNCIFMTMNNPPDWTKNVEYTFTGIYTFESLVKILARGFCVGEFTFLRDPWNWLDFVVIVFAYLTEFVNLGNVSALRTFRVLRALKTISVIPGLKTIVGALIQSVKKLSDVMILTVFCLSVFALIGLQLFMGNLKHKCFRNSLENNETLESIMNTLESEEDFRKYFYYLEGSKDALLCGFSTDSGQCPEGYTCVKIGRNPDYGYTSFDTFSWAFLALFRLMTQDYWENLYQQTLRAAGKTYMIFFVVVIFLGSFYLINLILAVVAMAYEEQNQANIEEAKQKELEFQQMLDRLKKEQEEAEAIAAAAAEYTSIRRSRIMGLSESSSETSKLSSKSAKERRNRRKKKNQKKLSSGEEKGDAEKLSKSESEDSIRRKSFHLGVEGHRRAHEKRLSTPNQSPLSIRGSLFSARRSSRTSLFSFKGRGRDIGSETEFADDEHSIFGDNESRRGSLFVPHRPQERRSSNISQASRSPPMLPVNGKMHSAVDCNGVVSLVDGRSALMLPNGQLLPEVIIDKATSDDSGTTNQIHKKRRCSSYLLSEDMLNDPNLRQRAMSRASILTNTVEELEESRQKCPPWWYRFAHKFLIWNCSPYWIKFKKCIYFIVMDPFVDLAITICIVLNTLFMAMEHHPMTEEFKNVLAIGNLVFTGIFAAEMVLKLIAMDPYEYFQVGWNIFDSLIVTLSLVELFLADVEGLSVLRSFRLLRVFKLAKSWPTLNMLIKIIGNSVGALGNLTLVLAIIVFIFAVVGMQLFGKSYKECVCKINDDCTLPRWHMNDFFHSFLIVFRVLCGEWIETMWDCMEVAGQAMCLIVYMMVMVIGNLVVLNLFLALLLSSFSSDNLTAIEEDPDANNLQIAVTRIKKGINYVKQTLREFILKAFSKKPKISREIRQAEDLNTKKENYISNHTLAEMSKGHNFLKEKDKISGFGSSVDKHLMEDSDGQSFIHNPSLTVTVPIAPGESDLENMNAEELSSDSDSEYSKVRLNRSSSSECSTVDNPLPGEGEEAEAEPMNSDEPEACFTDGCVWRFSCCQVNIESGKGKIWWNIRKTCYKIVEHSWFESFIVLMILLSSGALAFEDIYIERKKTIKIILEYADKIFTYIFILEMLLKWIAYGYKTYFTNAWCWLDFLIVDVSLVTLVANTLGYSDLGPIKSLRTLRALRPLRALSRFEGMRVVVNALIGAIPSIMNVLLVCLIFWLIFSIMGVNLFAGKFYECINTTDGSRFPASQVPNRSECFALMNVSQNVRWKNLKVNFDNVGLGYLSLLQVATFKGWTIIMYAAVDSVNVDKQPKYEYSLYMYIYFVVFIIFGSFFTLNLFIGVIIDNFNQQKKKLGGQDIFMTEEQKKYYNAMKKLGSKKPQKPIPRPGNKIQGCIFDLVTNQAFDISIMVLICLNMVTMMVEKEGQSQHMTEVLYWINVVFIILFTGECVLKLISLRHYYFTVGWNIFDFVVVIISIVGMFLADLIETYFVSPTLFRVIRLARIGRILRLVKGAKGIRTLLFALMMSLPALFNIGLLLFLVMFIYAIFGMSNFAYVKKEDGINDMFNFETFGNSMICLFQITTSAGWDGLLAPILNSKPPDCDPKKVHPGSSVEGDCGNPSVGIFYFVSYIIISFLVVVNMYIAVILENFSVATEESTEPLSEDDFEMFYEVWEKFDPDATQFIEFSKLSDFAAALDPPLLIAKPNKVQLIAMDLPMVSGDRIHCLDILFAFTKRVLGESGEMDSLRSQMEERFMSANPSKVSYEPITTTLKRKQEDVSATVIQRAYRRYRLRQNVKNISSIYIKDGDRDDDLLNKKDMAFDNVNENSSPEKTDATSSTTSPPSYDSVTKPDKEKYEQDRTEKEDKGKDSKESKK
Test: Electrophysiology assay for Navs, whole cell patch clamp, human Nav1.7 (hSCN9A) expressing CHO cells
Settings: Kinact, read-out: activity (Ki) against Nav1.7, dissociation constant for the inactivated state
Measured Parameter: Ki (nM)
Expressed in nM, but write only the number.

Problem: Any idea what Ki was measured for CC(=O)Nc1cc(C(C)NC(=O)c2ccc(OCC(F)(F)F)cn2)cc(C)n1 (single isomer, unassigned) ?
Result: 950

###

Target: human Nav1.7 (Homo sapiens, UniProt Q15858)
Experiment: FRET assay, human Nav1.7 channels (CHO, EFS on FDSS)
Conditions: read-out: activity (IC50) against Nav1.7
Measured Parameter: pIC50
pIC50 here is simply -log10 of the concentration when that concentration is written in mol/L.

Problem: Any idea what pIC50 was measured for CCC(=O)Nc1cc(CNC(=O)c2ccc(OCC(F)(F)F)nc2)cc(C)n1 ?
Result: 6.00

###

Target: human Nav1.5 (Homo sapiens, UniProt Q14524)
Assay: FRET assay, human Nav1.5 channels (HEK293, EFS on FDSS)
Details: read-out: activity (IC50) against Nav1.5
pIC50: −log10 of the molar value.
Measured Parameter: pIC50

Problem: Any idea what pIC50 was measured for CCC(=O)Nc1cc(CNC(=O)c2ccc(OCC(F)(F)F)nc2)cc(C)n1 ?
Result: < 4.52
